test system: MRSA 1: MRSA ATCC 700699; assay: microbe, parasite or virus in culture; conditions: ATCC 700699, 24 h
Bridge positions count the residues as written; N and C are the ends. Square brackets hold non-standard residues; d marks the D form. Peptide text beside a SMILES is read from it. d(aIle) = CC[C@H](C)[C@@H](N)C(=O)O; dNMeF = CN[C@H](Cc1ccccc1)C(=O)O
Measured MIC (without polysorbate 80), listed per entry for reference.
Supply the numeric figure in µg/mL, leaving out any unit text.

Molecule: CC[C@H](C)[C@H](NC(=O)[C@@H](Cc1ccccc1)NC)C(=O)N[C@@H](CO)C(=O)N[C@H](CCC(N)=O)C(=O)N[C@@H](C(=O)N[C@H](C(=O)N[C@@H](CO)C(=O)N[C@H]1C(=O)N[C@@H](C)C(=O)N[C@@H](C(C)C)C(=O)N[C@@H]([C@@H](C)CC)C(=O)O[C@H]1C)[C@@H](C)CC)[C@@H](C)CC [Compound 11, Val10-teixobactin] (H-[dNMeF]IS[dQ][d(aIle)]IS[dT]AVI; ester 8-C)
Units symbol: µg/mL
MIC (without polysorbate 80): 4
--
Molecule: CC[C@H](C)[C@H](NC(=O)[C@@H](Cc1ccccc1)NC)C(=O)N[C@@H](CO)C(=O)N[C@H](CCC(N)=O)C(=O)N[C@@H](C(=O)N[C@H](C(=O)N[C@@H](CO)C(=O)N[C@H]1C(=O)N[C@@H](C)C(=O)N[C@@H](CC(C)C)C(=O)N[C@@H]([C@@H](C)CC)C(=O)O[C@H]1C)[C@@H](C)CC)[C@@H](C)CC [Compound 13, Leu10-teixobactin] (H-[dNMeF]IS[dQ][d(aIle)]IS[dT]ALI; ester 8-C)
Units symbol: µg/mL
MIC (without polysorbate 80): 2
--
Molecule: CC[C@H](C)[C@H](NC(=O)[C@@H](Cc1ccccc1)NC)C(=O)N[C@@H](CO)C(=O)N[C@H](CCC(N)=O)C(=O)N[C@@H](C(=O)N[C@H](C(=O)N[C@@H](CO)C(=O)N[C@H]1C(=O)N[C@@H](C)C(=O)N[C@@H](CCCNC(=N)N)C(=O)N[C@@H]([C@@H](C)CC)C(=O)O[C@H]1C)[C@@H](C)CC)[C@@H](C)CC
Units symbol: µg/mL
MIC (without polysorbate 80): 4

# MIC (without polysorbate 80) of CC[C@H](C)[C@H](NC(=O)[C@@H](Cc1ccccc1)NC)C(=O)N[C@@H](CO)C(=O)N[C@H](CCC(N)=O)C(=O)N[C@@H](C(=O)N[C@H](C(=O)N[C@@H](CO)C(=O)N[C@H]1C(=O)N[C@@H](C)C(=O)N[C@@H](C)C(=O)N[C@@H]([C@@H](C)CC)C(=O)O[C@H]1C)[C@@H](C)CC)[C@@H](C)CC [Compound 8, Ala10-teixobactin] (H-[dNMeF]IS[dQ][d(aIle)]IS[dT]AAI; ester 8-C) = 8

The molecule CC[C@H](C)[C@@H]1NC(=O)[C@H](C)NC(=O)[C@H](NC(=O)[C@H](CO)NC(=O)[C@@H](NC(=O)[C@H](NC(=O)[C@@H](CCC(N)=O)NC(=O)[C@H](CO)NC(=O)[C@@H](NC(=O)[C@@H](Cc2ccccc2)NC)[C@@H](C)CC)[C@@H](C)CC)[C@@H](C)CC)[C@H](C)OC(=O)[C@H]([C@@H](C)CC)NC1=O [Compound 12, Ile10-teixobactin] (H-[dNMeF]IS[dQ][d(aIle)]IS[dT]AII; ester 8-C) showed MIC (without polysorbate 80) equal to 2
